I'd be grateful if you could share measured Selectivity ratio DAT/SERT for these entries.
biological target: DAT (Homo sapiens, UniProt Q01959); construct: expressed in transfected cells; assay: cell-based
Sequence (Q01959 whole entry): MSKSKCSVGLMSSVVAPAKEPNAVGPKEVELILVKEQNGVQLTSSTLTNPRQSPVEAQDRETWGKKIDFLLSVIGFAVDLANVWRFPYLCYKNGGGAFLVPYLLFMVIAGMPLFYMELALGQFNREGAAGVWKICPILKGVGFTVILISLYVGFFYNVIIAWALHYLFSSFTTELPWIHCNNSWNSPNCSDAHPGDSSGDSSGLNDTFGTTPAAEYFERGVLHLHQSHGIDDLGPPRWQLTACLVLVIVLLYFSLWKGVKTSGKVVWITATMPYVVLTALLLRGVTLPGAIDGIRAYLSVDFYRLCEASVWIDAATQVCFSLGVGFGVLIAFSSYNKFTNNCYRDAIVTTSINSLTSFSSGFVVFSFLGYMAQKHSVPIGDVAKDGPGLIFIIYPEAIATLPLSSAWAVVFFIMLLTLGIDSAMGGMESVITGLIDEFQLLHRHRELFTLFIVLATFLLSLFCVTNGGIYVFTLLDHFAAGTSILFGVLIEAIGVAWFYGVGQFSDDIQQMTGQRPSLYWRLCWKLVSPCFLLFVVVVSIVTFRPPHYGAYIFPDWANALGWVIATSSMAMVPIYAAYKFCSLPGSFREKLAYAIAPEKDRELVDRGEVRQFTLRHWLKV
Answers are plain numbers.

Below, each entry is followed by its recorded Selectivity ratio DAT/SERT result.
CN[C@H](C)[C@H](O)c1ccc(CO)cc1 [Dihydro-(R,R)-4-OH-MMC] ... 67.72
C[C@H](N)[C@@H](O)c1ccc(CO)cc1 [Dihydro-(S,S)-4-OH-MC] ... 9.92
Cc1ccc([C@H](O)[C@@H](C)N)cc1 [Dihydro-(S,R)-4-MC] ... 11.53
CN[C@H](C)[C@@H](O)c1ccc(CO)cc1 [Dihydro-(S,R)-4-OH-MMC] ... 40.99
CN[C@@H](C)[C@@H](O)c1ccc(CO)cc1 [Dihydro-(S,S)-4-OH-MMC] ... 11.49

List reported Selectivity ratio DAT/SERT for each of these molecules:
1. Cc1ccc([C@@H](O)[C@H](C)N)cc1 [Dihydro-(R,S)-4-MC]
2. CNC(C)C(=O)c1ccc(C)cc1 (stereo not shown) [Mephedrone, reference compound]
3. C[C@H](N)C(=O)c1ccc(CO)cc1
4. C[C@H](N)[C@H](O)c1ccc(CO)cc1 [Dihydro-(R,S)-4-OH-MC]

Response:
1: 4.94; 2: 2.90; 3: 2.08; 4: 3.86

Prompt: Data request, read-out Selectivity ratio DAT/SERT, for Cc1ccc([C@H](O)[C@H](C)N)cc1 [Dihydro-(S,S)-4-MC]
Response: 1.42
